TARGET UNDER TEST: Protein deacetylase HDAC6 (Homo sapiens)
Sequence (Q9UBN7 whole entry): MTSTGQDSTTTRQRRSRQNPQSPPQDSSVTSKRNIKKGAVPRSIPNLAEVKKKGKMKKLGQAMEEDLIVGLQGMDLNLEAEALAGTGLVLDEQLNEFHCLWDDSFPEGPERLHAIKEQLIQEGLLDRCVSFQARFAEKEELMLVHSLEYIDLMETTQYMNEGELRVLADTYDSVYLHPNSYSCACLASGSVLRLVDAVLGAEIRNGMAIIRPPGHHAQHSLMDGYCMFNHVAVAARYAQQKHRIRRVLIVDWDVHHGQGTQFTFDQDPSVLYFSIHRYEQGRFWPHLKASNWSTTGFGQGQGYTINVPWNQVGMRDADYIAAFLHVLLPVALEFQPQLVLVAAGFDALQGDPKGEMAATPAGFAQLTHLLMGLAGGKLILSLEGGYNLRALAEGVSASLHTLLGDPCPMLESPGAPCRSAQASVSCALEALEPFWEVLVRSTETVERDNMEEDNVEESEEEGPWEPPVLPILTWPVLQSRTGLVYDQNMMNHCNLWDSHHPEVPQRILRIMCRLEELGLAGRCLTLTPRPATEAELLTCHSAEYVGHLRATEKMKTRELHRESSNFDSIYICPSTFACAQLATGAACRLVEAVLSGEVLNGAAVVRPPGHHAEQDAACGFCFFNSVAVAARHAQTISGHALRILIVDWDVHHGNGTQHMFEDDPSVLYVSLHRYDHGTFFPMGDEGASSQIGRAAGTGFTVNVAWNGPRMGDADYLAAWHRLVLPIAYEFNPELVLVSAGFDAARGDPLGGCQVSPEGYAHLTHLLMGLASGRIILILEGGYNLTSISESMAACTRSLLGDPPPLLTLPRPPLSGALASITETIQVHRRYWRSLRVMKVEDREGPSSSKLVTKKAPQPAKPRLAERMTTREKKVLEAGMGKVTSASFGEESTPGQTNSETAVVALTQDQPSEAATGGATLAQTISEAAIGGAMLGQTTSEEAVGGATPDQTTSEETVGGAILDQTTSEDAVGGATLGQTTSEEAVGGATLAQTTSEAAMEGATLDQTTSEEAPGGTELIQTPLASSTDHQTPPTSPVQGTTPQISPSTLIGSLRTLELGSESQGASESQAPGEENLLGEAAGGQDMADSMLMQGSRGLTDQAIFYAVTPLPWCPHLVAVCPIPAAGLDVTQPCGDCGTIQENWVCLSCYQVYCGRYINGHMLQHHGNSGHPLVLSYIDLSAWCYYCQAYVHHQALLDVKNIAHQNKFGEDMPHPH
ASSAY DETAILS: Inhibition of HDAC6 in human LNCAP cells assessed as tubulin acetylation by Western blot analysis

STRUCTURE STRING	IC50, µM
Cc1ccccc1-c1ccc(Cn2cccc(O)c2=S)cc1	7.75

----------
Test system: Leishmania donovani
ASSAY DETAILS: Antileishmanial activity against promastigote stage of Leishmania donovani after 72 hrs by Alamar blue assay
Format: functional, organism-based
OBSERVATION TYPE: IC50 (µg/mL)

STRUCTURE STRING	TARGET UNDER TEST	OBSERVATION TYPE	U	COMPARATIVE SIGN	VALUE MEASURED
N#Cc1ccccc1-c1ccc(Cn2cccc(O)c2=O)cc1	Leishmania donovani	IC50	µg/mL	=	26.7
N#Cc1ccccc1-c1ccc(Cn2cccc(O)c2=S)cc1	Leishmania donovani	IC50	µg/mL	=	0.9
Cc1ccccc1-c1ccc(Cn2cccc(O)c2=S)cc1	Leishmania donovani	IC50	µg/mL	=	0.3
Oc1cccn(Cc2cn(-c3ccccc3)nn2)c1=S	Leishmania donovani	IC50	µg/mL	=	3.2
Oc1cccnc1O	Leishmania donovani	IC50	µg/mL	>	40
Cc1cccc(-c2ccc(Cn3cccc(O)c3=O)cc2)c1	Leishmania donovani	IC50	µg/mL	=	12.6
Cc1ccc(-c2ccc(Cn3cccc(O)c3=S)cc2)cc1	Leishmania donovani	IC50	µg/mL	=	0.3
Oc1cccn(Cc2ccccc2)c1=S	Leishmania donovani	IC50	µg/mL	=	0.1
Oc1ccc[nH]c1=S	Leishmania donovani	IC50	µg/mL	=	12.7
Oc1cccn(Cc2ccc(-c3ccccc3)cc2)c1=S	Leishmania donovani	IC50	µg/mL	=	0.1
CN(C)c1ccc(-c2ccc(Cn3cccc(O)c3=O)cc2)cc1	Leishmania donovani	IC50	µg/mL	=	7.5
CN(C)c1ccc(-c2ccc(Cn3cccc(O)c3=O)cc2)cn1	Leishmania donovani	IC50	µg/mL	=	38.9
Cc1ccccc1-c1ccc(Cn2cccc(O)c2=O)cc1	Leishmania donovani	IC50	µg/mL	=	27.6
